Molecular target: protein-protein interaction between Kras and SOS1 (biotin-tagged human Kras loaded with GDP, His-tagged human SOS1) (Homo sapiens (Human), UniProt P01116, G12D)
Assay: Protein-protein interaction inhibition between Kras and SOS1 (KrasG12D-SOS PPI) using AlphaScreen;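 note: kras produced in E. coli, Ni-coupled donor beads and streptavidin acceptor beads, excitation 680 nm with emission detected at 520–620 nm via singlet oxygen transfer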
Assay type: biochemical
Settings: AlphaScreen; biotin-tagged human Kras loaded with GDP, His-tagged human SOS1; read-out: KRAS G12D-SOS PPI IC50
Bridge positions count the residues as written; N and C are the ends. Square brackets hold non-standard residues; d marks the D form. Peptide text beside a SMILES is read from it. * marks the point of attachment. hPhe(3-Cl-4-CF3) = N[C@@H](CCc1ccc(C(F)(F)F)c(Cl)c1)C(=O)O; NEtPhe(4-CF3) = CCN[C@@H](Cc1ccc(C(F)(F)F)cc1)C(=O)O; NMePhe(4-CF3) = CN[C@@H](Cc1ccc(C(F)(F)F)cc1)C(=O)O; NMeCha = CN[C@@H](CC1CCCCC1)C(=O)O; cisHyp = O=C(O)[C@@H]1C[C@H](O)CN1; NMeAhp(2) = CCCCC[C@H](NC)C(=O)O; NMeChg = CN[C@H](C(=O)O)C1CCCCC1; NMeI = CC[C@H](C)[C@H](NC)C(=O)O; NMeD = CN[C@@H](CC(=O)O)C(=O)O; NMeL = CN[C@@H](CC(C)C)C(=O)O; NMeV = CN[C@H](C(=O)O)C(C)C; d(β3hA) = C[C@@H](N)CC(=O)O; Morpholide = C1CN(*)CCO1; NMeA = CN[C@@H](C)C(=O)O; Piperidide = C1CCN(*)CC1; Ac5c = NC1(C(=O)O)CCCC1; Aze = O=C(O)[C@@H]1CCN1; X9 = c1cncc(C*)c1; Sar = CNCC(=O)O
RECORDED_ENDPOINT: IC50 (nM)
Give the value, in units of nM, as a plain number.

Guide cases for IC50, answers given:
COMPOUND	IC50 (nM)
CC[C@H](C)[C@@H]1NC(=O)[C@H](CC(C)C)N(C)C(=O)C[C@@H](C(=O)N2CCOCC2)N(C)C(=O)[C@H]([C@@H](C)CC)N(C)C(=O)C2(CCCC2)NC(=O)[C@@H]2CCCN2C(=O)[C@H](CCc2ccc(C(F)(F)F)c(Cl)c2)NC(=O)CN(C)C(=O)[C@H](Cc2ccc(C(F)(F)F)cc2)N(CC)C(=O)[C@@H]2CCN2C(=O)[C@H](C)N(C)C1=O [Compound 1312] ([NMeL]I[NMeA][Aze][NEtPhe(4-CF3)][Sar][hPhe(3-Cl-4-CF3)]P[Ac5c][NMeI][NMeD]-Morpholide; lactam N-11)	0.74
CC[C@H](C)[C@@H]1NC(=O)[C@H](CC(C)C)N(C)C(=O)C[C@@H](C(=O)N2CCCCC2)N(C)C(=O)[C@H](C2CCCCC2)N(C)C(=O)C2(CCCC2)NC(=O)[C@@H]2C[C@H](OCc3cccnc3)CN2C(=O)[C@H](CCc2ccc(C(F)(F)F)c(Cl)c2)NC(=O)CN(C)C(=O)[C@H](CC2CCCCC2)N(C)C(=O)CN(C)C(=O)CN(C)C1=O [Compound 2120] ([NMeL]I[Sar][Sar][NMeCha][Sar][hPhe(3-Cl-4-CF3)][cisHyp](X9)[Ac5c][NMeChg][NMeD]-Piperidide; lactam N-11)	1
CCCCC[C@H]1C(=O)N[C@@H]([C@@H](C)CC)C(=O)N[C@@H](C)C(=O)N2CC[C@H]2C(=O)N(C)[C@@H](Cc2ccc(C(F)(F)F)cc2)C(=O)N(C)CC(=O)N[C@@H](CCc2ccc(C(F)(F)F)c(Cl)c2)C(=O)N2CCC[C@H]2C(=O)NC2(CCCC2)C(=O)N(C)[C@@H]([C@@H](C)CC)C(=O)N(C)[C@H](C(=O)N2CCOCC2)CC(=O)N1C [Compound 54] ([NMeAhp(2)]IA[Aze][NMePhe(4-CF3)][Sar][hPhe(3-Cl-4-CF3)]P[Ac5c][NMeI][NMeD]-Morpholide; lactam N-11)	1.9

Query: Report IC50 for CC[C@H](C)[C@@H]1NC(=O)[C@H](C(C)C)N(C)C(=O)C[C@@H](C)NC(=O)[C@H](CC(C)C)N(C)C(=O)C2(CCCC2)NC(=O)[C@H](CC(C)C)N(C)C(=O)[C@H](CCc2ccc(C(F)(F)F)c(Cl)c2)NC(=O)CN(C)C(=O)[C@H](CC2CCCCC2)N(C)C(=O)CN(C)C(=O)CN(C)C1=O [Compound 892] (cyclo([Ac5c][NMeL][d(β3hA)][NMeV]I[Sar][Sar][NMeCha][Sar][hPhe(3-Cl-4-CF3)][NMeL])) please.
Response: 68
